Target: SARM1 (Homo sapiens, UniProt Q6SZW1)
Construct: inventors produced full-length SARM1 for NAD enzyme activity experiments, and used it for screening; His (C); made in house; host or cells: HEK293 cells, transient transfection; supernatant of digitonin lysate, no further purification described
Sequence (Q6SZW1 28-724): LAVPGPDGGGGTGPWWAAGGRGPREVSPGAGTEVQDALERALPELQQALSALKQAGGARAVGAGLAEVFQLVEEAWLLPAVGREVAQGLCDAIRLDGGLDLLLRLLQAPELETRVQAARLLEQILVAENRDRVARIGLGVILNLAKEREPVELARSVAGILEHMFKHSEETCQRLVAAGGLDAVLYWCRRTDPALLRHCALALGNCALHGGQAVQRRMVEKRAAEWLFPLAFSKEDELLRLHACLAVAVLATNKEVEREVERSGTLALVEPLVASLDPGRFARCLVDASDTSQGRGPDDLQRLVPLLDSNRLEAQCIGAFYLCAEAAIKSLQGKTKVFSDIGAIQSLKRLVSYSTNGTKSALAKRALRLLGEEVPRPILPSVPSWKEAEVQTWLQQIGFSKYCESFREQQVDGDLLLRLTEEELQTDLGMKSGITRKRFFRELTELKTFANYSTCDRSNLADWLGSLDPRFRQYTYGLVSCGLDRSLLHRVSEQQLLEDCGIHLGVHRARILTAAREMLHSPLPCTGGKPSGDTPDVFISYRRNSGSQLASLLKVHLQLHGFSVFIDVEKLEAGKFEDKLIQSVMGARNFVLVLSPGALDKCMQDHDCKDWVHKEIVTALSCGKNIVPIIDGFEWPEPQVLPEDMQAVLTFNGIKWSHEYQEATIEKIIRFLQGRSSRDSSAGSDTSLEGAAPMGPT
Experiment: In vitro biochemical assay for inhibiting SARM1 enzyme activity (PC6 fluorescence, NADase)
Conditions: full-length SARM1 from transfected HEK293 cells; 50 µM NAD, 50 µM PC6, 50 µM NMN activator; room temperature, 30 minutes; read-out: IC50
pIC50: −log10 of the molar value.
Recorded pIC50 values for a group of molecules are listed next.

As a guide, the following entries are already answered.
| MOLECULE | TARGET UNDER TEST | pIC50 |
| --- | --- | --- |
| O=C(CCc1ccc(F)cc1)Nc1ccc2c(c1)COc1cnccc1-2 [Compound 29] | SARM1 (Homo sapiens, UniProt Q6SZW1) | > 7.00 |
| O=C1C(Cc2ccccc2)CCN1c1ccc2c(c1)COc1cnccc1-2 (stereo not drawn) [Compound 2] | SARM1 (Homo sapiens, UniProt Q6SZW1) | 6.00 to 7.00 |
| O=C(CCc1ccc2ccccc2c1)Nc1ccc2c(c1)COc1cnccc1-2 [Compound 81] | SARM1 (Homo sapiens, UniProt Q6SZW1) | 5.00 to 6.00 |
| Cc1cncc2c1-c1ccc(NC(=O)CCc3ccc(F)cc3)cc1CO2 [Compound 130] | SARM1 (Homo sapiens, UniProt Q6SZW1) | > 7.00 |
| O=C1N(Cc2ccc(F)cc2)CCN1c1ccc2c(c1)COc1cnccc1-2 [Compound 150] | SARM1 (Homo sapiens, UniProt Q6SZW1) | > 7.00 |

The reported value for O=C(CCc1cc(F)cc(F)c1)Nc1cnc2c(c1)COc1cnccc1-2 [Compound 96] in terms of pIC50 is > 7.00

Please fill in: pIC50 reported for O=C(Nc1ccc2c(c1)COc1cnccc1-2)OCc1ccc(F)cc1 [Compound 135] = 6.00 to 7.00

Per the record, CN(C(=O)CCc1ccc(F)cc1)c1ccc2c(c1)COc1cnccc1-2 [Compound 49] has pIC50 of 5.00 to 6.00

Field pIC50 (entry O=C(CCc1c(F)c(F)c(F)c(F)c1F)Nc1ccc2c(c1)COc1cnccc1-2 [Compound 80] ) reads > 7.00
